Experiment: Bioavailability / plasma pharmacokinetics
Format: in vivo
Conditions: rat, po, p.o. 1 mg/kg, male SD rats, read-out: Cmax nM
Procedure: Male SD rats were dosed intravenously at 1 mg/kg and orally at 1, 3, and 10 mg/kg. Plasma concentration as a function of time is depicted in FIG. 15.
observed property: Cmax (nM)
Numbers only, in nM.

Briefly, Cmax measured for "CNC(=O)[C@@]12C[C@@H]1[C@@H](n1cnc3c(NC)nc(C#Cc4ccc(Cl)s4)nc31)[C@H](O)[C@@H]2O" : 63

* * *

Kindly state pKi for each of the entries shown.
target: UniProt Q01959; assay: Radioligand ([3H]WIN35428) binding at the dopamine transporter; conditions: off-target binding; read-out: Ki at DAT
Sequence (Q01959 whole entry): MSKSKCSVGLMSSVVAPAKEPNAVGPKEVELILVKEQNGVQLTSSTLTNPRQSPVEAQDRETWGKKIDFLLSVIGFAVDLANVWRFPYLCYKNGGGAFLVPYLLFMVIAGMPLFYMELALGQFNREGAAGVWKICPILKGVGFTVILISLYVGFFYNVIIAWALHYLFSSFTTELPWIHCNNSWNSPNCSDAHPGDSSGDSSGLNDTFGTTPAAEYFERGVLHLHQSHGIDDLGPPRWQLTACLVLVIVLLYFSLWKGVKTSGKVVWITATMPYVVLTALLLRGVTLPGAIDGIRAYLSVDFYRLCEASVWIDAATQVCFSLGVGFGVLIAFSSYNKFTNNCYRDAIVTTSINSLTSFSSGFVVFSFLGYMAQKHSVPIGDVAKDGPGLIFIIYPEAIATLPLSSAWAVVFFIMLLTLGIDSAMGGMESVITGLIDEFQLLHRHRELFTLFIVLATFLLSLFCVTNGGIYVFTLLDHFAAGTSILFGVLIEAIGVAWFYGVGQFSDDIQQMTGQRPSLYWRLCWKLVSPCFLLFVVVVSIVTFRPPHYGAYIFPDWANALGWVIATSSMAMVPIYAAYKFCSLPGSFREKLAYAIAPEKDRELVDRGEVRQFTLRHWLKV
Numbers only, as −log10 of the molar value.

chemical string | tested on | observed property | val
CNC(=O)[C@@]12C[C@@H]1[C@@H](n1cnc3c(NC)nc(C#Cc4cnccn4)nc31)[C@H](O)[C@@H]2O | UniProt Q01959 | pKi | 5.74

With those in mind, consider the next molecule.
"CNC(=O)[C@@]12C[C@@H]1[C@@H](n1cnc3c(NC)nc(C#Cc4cccs4)nc31)[C@H](O)[C@@H]2O" has a reported pKi of 6.12

// data source = patent US10577368B2
